Attribution: patent US11767322B2

system-tested: GST-tagged PIK3Cδ in complex with PIK3R1 (Homo sapiens, UniProt O00329)
Sequence (O00329 whole entry): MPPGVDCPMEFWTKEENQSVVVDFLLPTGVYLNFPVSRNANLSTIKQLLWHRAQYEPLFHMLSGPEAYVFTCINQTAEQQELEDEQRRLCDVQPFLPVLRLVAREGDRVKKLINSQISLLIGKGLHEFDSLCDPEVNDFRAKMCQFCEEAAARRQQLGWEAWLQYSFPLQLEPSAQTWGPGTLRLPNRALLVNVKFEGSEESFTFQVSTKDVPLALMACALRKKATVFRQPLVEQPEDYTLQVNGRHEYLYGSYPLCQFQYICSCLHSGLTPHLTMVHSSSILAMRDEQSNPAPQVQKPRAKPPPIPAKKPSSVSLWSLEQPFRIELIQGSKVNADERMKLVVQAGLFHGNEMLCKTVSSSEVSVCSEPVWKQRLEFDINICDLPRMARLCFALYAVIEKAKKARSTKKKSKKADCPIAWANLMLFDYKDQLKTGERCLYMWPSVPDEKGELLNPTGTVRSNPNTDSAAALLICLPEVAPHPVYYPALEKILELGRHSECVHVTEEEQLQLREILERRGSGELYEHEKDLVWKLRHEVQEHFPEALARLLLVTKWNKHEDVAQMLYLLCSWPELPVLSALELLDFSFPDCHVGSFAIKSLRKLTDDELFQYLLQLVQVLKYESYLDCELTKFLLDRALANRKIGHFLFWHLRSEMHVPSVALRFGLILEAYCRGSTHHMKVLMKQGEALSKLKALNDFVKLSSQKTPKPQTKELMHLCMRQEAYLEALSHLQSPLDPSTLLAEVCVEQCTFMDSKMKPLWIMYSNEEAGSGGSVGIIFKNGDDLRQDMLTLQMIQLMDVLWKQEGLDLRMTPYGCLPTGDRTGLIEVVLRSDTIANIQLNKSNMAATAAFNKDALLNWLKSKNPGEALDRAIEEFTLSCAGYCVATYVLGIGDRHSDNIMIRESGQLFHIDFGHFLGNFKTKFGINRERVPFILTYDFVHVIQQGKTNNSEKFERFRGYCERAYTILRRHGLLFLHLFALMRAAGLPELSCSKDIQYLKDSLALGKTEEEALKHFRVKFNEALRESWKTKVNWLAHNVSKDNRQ
Sequence (P27986 whole entry partner): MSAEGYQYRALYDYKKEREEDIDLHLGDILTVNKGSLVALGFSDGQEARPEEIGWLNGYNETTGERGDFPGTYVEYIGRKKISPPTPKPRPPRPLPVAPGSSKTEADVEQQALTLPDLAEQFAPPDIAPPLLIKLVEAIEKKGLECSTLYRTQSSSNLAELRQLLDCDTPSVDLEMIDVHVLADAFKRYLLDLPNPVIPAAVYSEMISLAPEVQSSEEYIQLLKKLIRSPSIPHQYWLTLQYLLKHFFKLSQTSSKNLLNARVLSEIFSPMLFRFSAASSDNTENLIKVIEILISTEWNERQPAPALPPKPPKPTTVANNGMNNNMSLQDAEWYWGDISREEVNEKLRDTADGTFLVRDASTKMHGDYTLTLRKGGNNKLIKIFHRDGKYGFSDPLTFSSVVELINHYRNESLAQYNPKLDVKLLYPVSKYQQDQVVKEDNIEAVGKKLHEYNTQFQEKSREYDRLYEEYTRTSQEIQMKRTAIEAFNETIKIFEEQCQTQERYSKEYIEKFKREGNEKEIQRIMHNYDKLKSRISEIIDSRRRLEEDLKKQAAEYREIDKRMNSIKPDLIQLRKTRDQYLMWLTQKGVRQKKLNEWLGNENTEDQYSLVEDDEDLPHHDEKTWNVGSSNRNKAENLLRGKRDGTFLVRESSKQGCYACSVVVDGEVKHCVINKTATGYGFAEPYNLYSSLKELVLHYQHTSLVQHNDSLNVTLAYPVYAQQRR
assay-overview: PI3Kδ HTRF binding assay
test-context: read-out: PIK3CD IC50
pIC50: −log10 of the molar value.
# pIC50 values compiled below
property-label: pIC50

COc1ccc(-c2ccn3nc(N)nc3c2)c(F)c1C(=O)NCC[C@H](O)c1ccc(Cl)cc1 ... 4.89
Cc1ccc(-c2ccn3nc(N)nc3c2)c(F)c1C(=O)NCCC(O)c1cccc(Cl)c1 (centres unmarked) ... 4.96
COc1ccc(-c2ccn3nc(N)nc3c2)c(F)c1C(=O)NCC[C@@H](O)c1ccc(Cl)cc1 ... 5.30

====

# pIC50 values compiled below
system-tested: GST-tagged PIK3Cδ in complex with PIK3R1 (Homo sapiens, UniProt O00329)
assay-overview: PI3Kδ HTRF binding assay
test-context: HTRF probe displacement, 1 h at rt; read-out: PIK3CD IC50
pIC50: −log10 of the molar value.
property-label: pIC50

CC(CCNC(=O)c1cc(-c2ccn3nc(N)nc3c2)ccc1Cl)c1ccccc1 (stereo not drawn) ... 5.28
Cc1ccc(-c2ccn3nc(N)nc3c2)c(F)c1C(=O)NCCC(O)c1ccc(F)cc1 (single isomer, unassigned) [Example 51] ... < 4.82
Cc1ccc(-c2ccn3nc(N)nc3c2)c(F)c1C(=O)NC(C)CC(O)c1ccc(F)cc1 (single isomer, unassigned) [Example 39] ... < 4.82
Nc1nc2cc(-c3ccc(C(F)F)c(C(=O)NCC(F)(F)[C@@H](O)c4ccc(F)cc4)c3F)ccn2n1 ... < 4.82
[2H]C([2H])(CC([2H])(O)c1ccc(Cl)cc1)NC(=O)c1c(F)ccc(-c2ccn3nc(N)nc3c2)c1F (single isomer, unassigned) [Example 251] ... < 4.82
Nc1nc2cc(-c3ccc(Cl)c(C(=O)NCC(F)(F)C(O)c4cnc(Cl)c(Cl)c4)c3F)ccn2n1 (single isomer, unassigned) ... 4.96

====

Test system: MLKL phosphorylation in HT29-L23 human colorectal adenocarcinoma cells
assay-overview: MLKL phosphorylation high-content assay
Assay type: cell-based
test-context: Homo sapiens, 6 h, read-out: pMLKL IC50, HT29-L23 cells; necroptosis induced with TNFα, SMAC mimetic and Z-VAD, 6 h; maximal inhibition defined by Nec1s
# IC50 values compiled below
property-label: IC50

Cc1cc(F)c(-c2ccn3nc(N)nc3c2)cc1C(=O)NCCC(O)c1ccc(F)cc1 (stereo not shown) [Example 8] ... 2.3 nM
Nc1nc2cc(-c3ccc(CF)c(C(=O)NCC(F)(F)[C@@H](O)c4ccc(F)cc4)c3F)ccn2n1 ... 1.9 nM
Nc1nc2cc(-c3ccc(Cl)c(C(=O)NCC(F)(F)C(O)c4cccc(F)c4F)c3F)ccn2n1 (single isomer, unassigned) ... 5.1 nM
Cc1ccc(-c2ccn3nc(N)nc3c2)c(F)c1C(=O)NCCC(C)(O)c1ccc(Cl)cc1 (single isomer, unassigned) [Example 59] ... 1.2 nM

====

system-tested: His-GST-TVMV-hRIPK1(1-324) (Homo sapiens)
Construct: The coding region of human RIPK1(1-324) flanked by NdeI site at 5′ end; made in house; host or cells: Spodoptera frugiperda Sf9 insect cells (baculovirus, Bac-to-Bac)
assay-overview: biochemical
Type: binding
test-context: HTRF probe displacement, 1 h at rt; read-out: RIPK1 IC50
pIC50: −log10 of the molar value.
property-label: pIC50

Nc1nc2cc(-c3ccc(Cl)c(C(=O)NCC(F)(F)C(O)c4cc(F)ccc4F)c3F)ccn2n1 (single isomer, unassigned) [Example 177] ... 8.74
Nc1nc2cc(-c3ccc(Cl)c(C(=O)NCC(O)C(F)(F)c4ccc(F)cc4)c3F)ccn2n1 (single isomer, unassigned) [Example 292] ... 8.62
[2H]C([2H])([2H])c1ccc(-c2ccn3nc(N)nc3c2)c(F)c1C(=O)NCC(F)(F)C(C)(O)c1ccc(Cl)cc1 (single isomer, unassigned) [Example 252] ... 8.14
Cc1ccc(-c2ccn3nc(N)nc3c2)c(F)c1C(=O)NCCC(O)C1CCCC1 (centres unmarked) [Example 247] ... 7.89
Cc1ccc(-c2ccn3nc(N)nc3c2)c(F)c1C(=O)NCC(F)(F)C(O)c1ccnc(C(F)(F)F)c1 (single isomer, unassigned) [Example 260] ... 8.08
Cc1ccc(-c2ccn3nc(N)nc3c2)c(F)c1C(=O)NCCC(O)c1cccc(Cl)c1 (single isomer, unassigned) [Example 44] ... 8.89
Cc1ccc(-c2ccn3nc(N)nc3c2)c(F)c1C(=O)NCCC(C)(C)c1ccc(Cl)cc1 [Example 15] ... 8.82
Nc1nc2cc(-c3ccc(Cl)c(C(=O)NCC(F)(F)C(O)C4CCC(F)(F)CC4)c3F)ccn2n1 (centres unmarked) [Example 257] ... 8.05
Cc1cc(F)c(-c2ccn3nc(N)nc3c2)cc1C(=O)NCC(F)(F)C(O)c1ccc(F)cc1 (single isomer, unassigned) [Example 98] ... 8.55
Cc1ccc(-c2ccn3nc(N)nc3c2)c(F)c1C(=O)NCC(F)(F)[C@@H](OC(N)=O)c1ccc(F)cc1 [Example 276] ... 8.43
Nc1nc2cc(-c3ccc(Cl)c(C(=O)NCC(F)(F)C(O)c4cccc(Cl)c4)c3F)ccn2n1 (centres unmarked) [Example 193] ... 8.06
Nc1nc2cc(-c3ccc(F)c(C(=O)NCCC4(c5ccc(F)cc5)CC4)c3F)ccn2n1 [Example 249] ... 8.68
Cc1ccc(-c2ccn3nc(N)nc3c2)c(F)c1C(=O)NCCC(c1ccccc1)C(F)(F)F (single isomer, unassigned) [Example 13] ... 9.22
[2H]C([2H])([2H])C(O)(c1ccc(F)cc1)C(F)CNC(=O)c1c(Cl)ccc(-c2ccn3nc(N)nc3c2)c1F (single isomer, unassigned) [Example 238] ... 7.80
Cc1ccc(-c2ccn3nc(N)nc3c2)c(F)c1C(=O)NCC(O)C(F)(F)c1ccc(F)cc1 (single isomer, unassigned) [Example 291] ... 9.00
[2H]C([2H])([2H])c1ccc(-c2ccn3nc(N)nc3c2)c(F)c1C(=O)NCC(F)(F)C(C)(O)c1ccc(Cl)cc1 (single isomer, unassigned) [Example 253] ... 8.62
Cc1ccc(-c2ccn3nc(N)nc3c2)c(F)c1C(=O)NCC(F)(F)C(O)c1ccc(F)c(F)c1 (single isomer, unassigned) [Example 199] ... 8.85
Cc1ccc(-c2ccn3nc(N)nc3c2)c(F)c1C(=O)NCCC(O)C1CCCCC1 (centres unmarked) [Example 40] ... 8.42
[2H]C(O)(c1ccc(C(F)F)cc1)C(F)(F)CNC(=O)c1c(Cl)ccc(-c2ccn3nc(N)nc3c2)c1F (single isomer, unassigned) [Example 311] ... 8.30
Cc1cc(F)c(-c2ccn3nc(N)nc3c2)c(F)c1C(=O)NCC[C@@H](O)c1ccc(Cl)cc1 [Example 278] ... 7.89
Nc1nc2cc(-c3ccc(Cl)c(C(=O)NCC[C@H](O)c4ccc(Cl)cc4)c3F)ccn2n1 [Example 153] ... 8.39
[2H]C([2H])(CC([2H])(O)c1ccc(Cl)cc1)NC(=O)c1c(Cl)ccc(-c2ccn3nc(N)nc3c2)c1F (single isomer, unassigned) [Example 76] ... 8.82
[2H]C([2H])([2H])c1ccc(-c2ccn3nc(N)nc3c2)c(F)c1C(=O)NCC(F)(F)C(C)(O)c1ccc(F)cc1 (single isomer, unassigned) [Example 241] ... 8.00
Cc1ccc(-c2ccn3nc(N)nc3c2)c(F)c1C(=O)NCCC(C)(O)c1ccc(C#N)cc1 (centres unmarked) [Example 141] ... 7.66
Cc1ccc(-c2ccn3nc(N)nc3c2)c(F)c1C(=O)NCC[C@H](O)c1ccc(Cl)cc1 [Example 151] ... 8.55
Cc1ccc(-c2ccn3nc(N)nc3c2)c(F)c1C(=O)NCCC(O)c1ccc(Cl)c(Cl)c1 (centres unmarked) [Example 32] ... 8.66

====

# IC50 values compiled below
system-tested: His-GST-TVMV-hRIPK1(1-324) (Homo sapiens, UniProt Q13546)
Construct: The coding region of human RIPK1(1-324) flanked by NdeI site at 5′ end; made in house; host or cells: Spodoptera frugiperda Sf9 insect cells (baculovirus, Bac-to-Bac)
Sequence (Q13546 1-324): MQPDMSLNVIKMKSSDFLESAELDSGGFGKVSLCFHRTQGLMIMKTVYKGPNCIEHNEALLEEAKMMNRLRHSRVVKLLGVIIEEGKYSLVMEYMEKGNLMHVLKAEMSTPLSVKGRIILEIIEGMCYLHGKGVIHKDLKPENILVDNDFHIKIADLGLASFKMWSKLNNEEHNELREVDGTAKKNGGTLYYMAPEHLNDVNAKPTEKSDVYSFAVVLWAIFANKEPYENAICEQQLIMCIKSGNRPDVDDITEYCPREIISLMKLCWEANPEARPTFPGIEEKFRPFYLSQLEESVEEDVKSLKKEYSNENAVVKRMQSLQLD
assay-overview: biochemical
Assay type: binding
test-context: HTRF probe displacement, 1 h at rt; read-out: RIPK1 IC50
property-label: IC50 (nM)

Nc1nc2cc(-c3ccc(Cl)c(C(=O)NCC(F)(F)C(O)c4ccc(F)cc4F)c3F)ccn2n1 (single isomer, unassigned) [Example 178] ... 0.9
Nc1nc2cc(-c3ccc(Cl)c(C(=O)NCC(F)(F)C(O)c4cc(F)cc(F)c4)c3F)ccn2n1 (stereo not drawn) [Example 189] ... 11
[2H]C([2H])([2H])c1ccc(-c2ccn3nc(N)nc3c2)c(F)c1C(=O)NCC(F)(F)C(O)(c1ccc(F)cc1)C([2H])([2H])[2H] (single isomer, unassigned) [Example 243] ... 4.7
Cc1ccc(-c2ccn3nc(N)nc3c2)c(F)c1C(=O)NCC(F)(F)C(C)(O)c1ccc(Cl)cc1 (single isomer, unassigned) [Example 221] ... 3.2
Cc1ccc(-c2ccn3nc(N)nc3c2)c(F)c1C(=O)NCCC(O)c1ccc(Cl)c(Cl)c1 (single isomer, unassigned) [Example 33] ... 1
Cc1ccc(-c2ccn3nc(N)nc3c2)c(F)c1C(=O)NCC(F)(F)C(O)(c1ccc(F)cc1)C(F)F (stereo not drawn) ... 19
